Would you mind telling me the reported % Bound of each entry?
target: LHRH receptor (LHRH binding sites) on EFO-27 human ovarian cancer cells (human); assay: direct binding of 177Lu-labeled peptide to EFO-27 cells, single concentration
Non-standard residues stand in square brackets, D forms with d. Bpa = N[C@@H](Cc1ccc(C(=O)c2ccccc2)cc1)C(=O)O; His(1-Me) = 1-methylhistidine; DO3A10CM = not defined here; Hpgly = not defined here; azaGly = NNC(=O)O; Sar = CNCC(=O)O
Answers are plain numbers, in %.

Example binders with recorded % Bound:
{"columns": ["BINDER", "VALUE UNITS", "% Bound"],
 "data": [
  ["DO3A10CM-G[Hpgly]HWSH[dR]W[Bpa]P[azaGly]-NH2 (reading uncertain; also: 177Lu complexed by DO3A10CM, printed as 177Lu-DO3A10CM-Gly-Hpgly-His-Trp-Ser-His-Darg-Trp-Bpa4-Pro-azaGly-NH2) [^177Lu-BRU-2797]", "%", 4.64],
  ["DO3A10CM-[Sar][His(1-Me)]WSH[dR]W[Bpa]P[azaGly]-NH2 (reading uncertain; also: 177Lu complexed by DO3A10CM, printed as 177Lu-DO3A10CM-Sar-His(1-Me)-Trp-Ser-His-Darg-Trp-Bpa4-Pro-azaGly-NH2) [^177Lu-BRU-2741]", "%", 1.35],
  ["XHWSHXWXPX (177Lu held by the N-terminal DO3A10CM: 177Lu-DO3A10CM-Dnal1-His-Trp-Ser-His-Darg-Trp-Bpa4-Pro-azaGly-NH2) [^177Lu-BRU-2869]", "%", 9.2]
]}

Requested read-out: % Bound. Entry: XHWSHXWXPX (177Lu held by the N-terminal DO3A10CM: 177Lu-DO3A10CM-Sar-His-Trp-Ser-His-Darg-Trp-Cfe4-Pro-azaGly-NH2) [^177Lu-BRU-2725]
0.41

The reported numbers originate from patent US20120045393A1.
